# target or system: T1, hu-M-IL1RAP construct, positions S21-T367 (extracellular domain of the membrane form of human IL1RAP) (human, UniProt Q9NPH3 21-367)
# T1 construct: Biotinylated when captured on the Biacore chip
# T1 sequence: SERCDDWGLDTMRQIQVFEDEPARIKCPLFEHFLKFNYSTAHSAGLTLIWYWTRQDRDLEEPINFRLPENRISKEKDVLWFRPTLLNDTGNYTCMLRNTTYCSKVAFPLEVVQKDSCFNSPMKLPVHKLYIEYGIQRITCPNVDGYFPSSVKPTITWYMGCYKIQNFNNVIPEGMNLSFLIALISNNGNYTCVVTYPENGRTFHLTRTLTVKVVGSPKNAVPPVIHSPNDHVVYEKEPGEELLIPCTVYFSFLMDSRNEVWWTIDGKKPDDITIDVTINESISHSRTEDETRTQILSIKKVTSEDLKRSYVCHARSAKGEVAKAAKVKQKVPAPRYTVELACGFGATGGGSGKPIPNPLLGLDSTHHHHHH
# run description: SPR, Fab analyte, 25 C
observation type: koff (s⁻¹)
Dear colleague, please return just the value in s⁻¹, with no unit written.

{"binder": "K18 Fab (VL A51Y/L33G) (Fab, V domains shown, Fab with 8xHis tag) VH: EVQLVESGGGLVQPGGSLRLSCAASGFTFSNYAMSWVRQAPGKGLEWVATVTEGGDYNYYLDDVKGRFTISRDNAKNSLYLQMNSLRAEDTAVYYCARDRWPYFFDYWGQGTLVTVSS VL: DIQMTQSPSSLSASVGDRVTITCRASENIYSNGAWYQQKPGKSPKLLVYGYKNLADGVPSRFSGSGSGTDYTLTISSLQPEDFATYYCQHFWTTPRTFGGGTKVEIK", "koff (s⁻¹)": 0.000123}
{"binder": "K13 Fab (VL A51Y/W92I) (Fab, V domains shown, Fab with 8xHis tag) VH: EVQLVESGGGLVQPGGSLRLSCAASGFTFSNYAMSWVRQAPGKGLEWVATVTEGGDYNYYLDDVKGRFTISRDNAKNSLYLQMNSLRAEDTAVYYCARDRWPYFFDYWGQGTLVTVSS VL: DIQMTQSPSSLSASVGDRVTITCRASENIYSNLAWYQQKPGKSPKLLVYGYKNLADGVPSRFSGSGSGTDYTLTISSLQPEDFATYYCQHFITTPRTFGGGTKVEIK", "koff (s⁻¹)": "4.36e-05"}

Now, please, on to the next binder.
Report koff for K5 Fab (VL Y30W/W92L) (Fab, V domains shown, Fab with 8xHis tag) VH: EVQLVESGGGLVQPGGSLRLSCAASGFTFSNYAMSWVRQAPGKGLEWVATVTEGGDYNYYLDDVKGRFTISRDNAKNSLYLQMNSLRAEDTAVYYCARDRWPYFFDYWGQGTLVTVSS VL: DIQMTQSPSSLSASVGDRVTITCRASENIWSNLAWYQQKPGKSPKLLVYGAKNLADGVPSRFSGSGSGTDYTLTISSLQPEDFATYYCQHFLTTPRTFGGGTKVEIK please. 0.000268
